- System: HOP-92 NSCLC
- assayMethodText: NCI tumour cell line growth inhibition, 48 h
*1 amine or outer side, *2 acyl side, *3 side chain or, on linkers, in order; H or OH if unused. Where a SMILES comes first, the peptide text is derived from it. [ ]: non-standard residue; d: D form. X32 = C[C@H](N[*:1])C(=O)C(C)(C)C(=O)[*:2]; Hmpa(2S,3S) = CC[C@H](C)[C@H](O)C(=O)O; NMeY = CN[C@@H](Cc1ccc(O)cc1)C(=O)O; NMeL = CN[C@@H](CC(C)C)C(=O)O; NMeV = CN[C@H](C(=O)O)C(C)C; βAla = NCCC(=O)O
Reported TGI values for the following compounds.
assayMetric: TGI (µM)

{"compound": "N#CC1CC2(CCN1C(=O)c1ccccc1)OCCO2 (stereo unspecified)", "assayMetric": "TGI", "censoringQualifier": ">", "dataValue": 100}
{"compound": "O=C1c2ccccc2S(=O)(=O)c2cc(-c3nn[nH]n3)ccc21", "assayMetric": "TGI", "censoringQualifier": ">", "dataValue": 100}
{"compound": "O=Cc1c(O)c(C(=O)Nc2ccc3[nH]c(=O)[nH]c3c2)cc2ccccc12", "assayMetric": "TGI", "censoringQualifier": ">", "dataValue": 100}
{"compound": "CC[C@H](C)[C@@H]1OC(=O)CCNC(=O)[C@@H](C)NC(=O)C(C)(C)C(=O)[C@H](C)NC(=O)[C@H](Cc2ccc(OC)cc2)N(C)C(=O)[C@H](C(C)C)N(C)C(=O)CNC(=O)[C@H](CC(C)C)N(C)C(=O)CNC1=O (cyclo(G[NMeL]G[NMeV][NMeY](Me)[X32][dA][βAla][Hmpa(2S,3S)]))", "assayMetric": "TGI", "censoringQualifier": "=", "dataValue": 4.61}
{"compound": "CC(C)NC(=O)CN1CCN(c2c(O)c3c(c(O)c2Cl)C(=O)C=CC3=O)CC1", "assayMetric": "TGI", "censoringQualifier": "=", "dataValue": 4.16}
{"compound": "N#CC1(C#N)C(C#N)(C#N)C12CCCCCC2", "assayMetric": "TGI", "censoringQualifier": "=", "dataValue": 29.4}
